Provide the recorded growth inhibition for the entries that follow.
# test_details: NCI Yeast Anticancer Drug Screen. Data for the bub3 strain (AID 167)
# condition_parameters: S. cerevisiae bub3 mutant strain, at 5.0 µM (retest, dose inferred, filed as 0.5), active compounds read high
# Protocol: Growth inhibition of yeast strains with defined genetic alterations is measured as a screen for potential anti-cancer activity. Selected strains with alterations in DNA damage repair or cell cycle control were exposed to compounds and growth inhibition was measured relative to vehicle treated controls. The strain used in this assay is bub3
Compounds without any hit were thinned out: in the full panel of roughly 79,000, 15% have a hit. Activity calls are given as the source filed them. Rule as the data show it: active = growth inhibition above about 70%; inactive = the rest.

# compound, growth inhibition
data = [
    ("COc1ccc(/C=C/c2ccnc3ccccc23)cc1", "48% (inactive)"),
    ("COc1ccc(CN2CCCN(Cc3ccc(OC)cc3OC)C2c2cccc([N+](=O)[O-])c2O)c(OC)c1", "-5% (inactive)"),
    ("O=[N+]([O-])c1cc(I)cc(/C=N/NS(=O)(=O)c2ccc(F)cc2)c1O", "3% (inactive)"),
    ("CCOC(=O)c1cnccc1CC1(C#N)c2ccccc2C=CN1C(=O)c1ccccc1 (stereo not given)", "6% (inactive)"),
    ("Cc1ccc(Sc2ccc(C)cc2[N+](=O)[O-])c([N+](=O)[O-])c1", "56% (inactive)"),
    ("CCOCCOC(=O)C(C)O (stereo not given)", "6% (inactive)"),
]

Quick one: give me growth inhibition for each item below, same order please.
1. CCN(CC)CC(O)c1c(-c2ccccc2)c(-c2ccccc2)c2n1CCC2 (stereo not given)
2. S=C(Nc1ccccc1)N(Cc1ccccc1)c1ccccc1
3. CCCCCCCCC[n+]1cccc(C(=O)c2ccccc2)c1
4. Cc1cc(Cl)ccc1Nc1sc(C(=O)c2cc3cc(Cl)ccc3o2)c(N)c1C#N
5. Cc1cc(C)c(C(=O)C(Br)C(Br)c2ccccc2)c(C)c1 (stereo not given)
6. COc1nc2nc(SC(CC(=O)O)C(=O)c3ccc(Cl)cc3)[nH]c2c2ccccc12 (stereo not given)
7. Cc1ccc(C2SCC(=O)N2c2ccc(-n3c(-c4ccccc4)nc4ccccc4c3=O)cc2)cc1 (stereo not given)

1. -3% (inactive)
2. 3% (inactive)
3. 0% (inactive)
4. 13% (inactive)
5. 47% (inactive)
6. -2% (inactive)
7. -24% (inactive)

Quick one: give me growth inhibition for each item below, same order please.
1. COc1ccc2nc3cc(Cl)ccc3c(NCCCCN(C)C)c2c1
2. COc1nc(NC2OC(CO)C(O)C(O)C2O)c(Cl)c(=O)[nH]1 (stereo not given)

1: -3% (inactive); 2: 4% (inactive)

====

# test_details: NCI Yeast Anticancer Drug Screen. Data for the sgs1 mgt1 strain (AID 161);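 also: 0% = growth of cultures given vehicle only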
# condition_parameters: S. cerevisiae sgs1 mgt1 strain, at 50.0 µM (retest, dose inferred, filed as 5.0)
About 79,000 compounds went through this panel and 15% of them were active in at least one assay; those are over-represented in the sample as a whole. Active and inactive are the calls of the source. Rule as the data show it: active = growth inhibition above about 70%; inactive = the rest.
Entry note: the call must match one of active, inactive

# compound, assigned_class
rows = [
    ("CC1=CC(=O)[C@@H](O)[C@]2(C)[C@H]3[C@@]4(O)OC[C@]35[C@H]([C@@H](C)[C@H]4O)[C@@H](OC(=O)C(C)(C)CO)C(=O)O[C@@H]5C[C@@H]12", "inactive"),
]

Which outcome was entered for the compound COC(=O)C1=Cc2cc3c(cc2[C@H](c2ccc4c(c2)OCO4)C1C(=O)OC)OCO3 (stereo partly drawn) in this test?
inactive

Which outcome was entered for the compound CCCCCCCCCc1cc(O)c(O)cc1CCCCCCCCC in this test?
inactive

Which outcome was entered for the compound CCCCCCCCCCCCCCCCn1cc(C(O)CN(C)C)c2ccccc21 (stereo not drawn) in this test?
active

====

# test_details: NCI Yeast Anticancer Drug Screen. Data for the mlh1 rad18 strain (AID 175)
# condition_parameters: S. cerevisiae mlh1 rad18 strain growth inhibition; at 50.0 µM
About 79,000 compounds went through this panel and 15% of them were active in at least one assay; those are over-represented in the sample as a whole. Activity calls are given as the source filed them. Cut-off read from the data, not from the text of the source: active = growth inhibition above about 70%; inactive = the rest.
Entry note: the call must match one of active, inactive

# compound, assigned_class
rows = [
    ("O=C(NC1CCN(Cc2ccccc2)CC1)c1cccc(I)c1", "inactive"),
    ("Nc1cc(F)c(F)cc1Sc1cc(F)c(F)cc1N", "active"),
    ("CCC(=O)c1cc2ccccc2c2ccccc12", "inactive"),
    ("Nc1ccccc1N=Nc1c(S(=O)(=O)O)cc2cc(S(=O)(=O)O)cc(O)c2c1O", "inactive"),
    ("O=C(/C=C\\c1ccccc1)/C=C/c1ccccc1", "active"),
    ("OC1CCCCC1Cc1ccc(Cl)cc1 (configuration not stated)", "active"),
]

Lab note: next compound to report on.
Which outcome was entered for the compound CC(=O)c1c(O)c2ccc(Cl)cc2[nH]c1=O in this test?
inactive

====

# test_details: NCI Yeast Anticancer Drug Screen. Data for the cln2 rad14 strain (AID 165);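 also: 0% = growth equal to vehicle treated cultures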
# condition_parameters: S. cerevisiae cln2 rad14 strain, at 5.0 µM (retest, dose inferred, filed as 0.5), active compounds read high
Compounds without any hit were thinned out: in the full panel of roughly 79,000, 15% have a hit.
property: growth inhibition (%)
Numbers only, in %.

Example cases with answers are listed next.
# compound, result_unit, experimental_value
measured = [
    ("Cc1cn(C(C#N)=C(C#N)C#N)c2ccccc12", "%", -2),
    ("C[C@]12CC[C@@H]3c4cc(OCC(F)(F)F)c(O)cc4CC[C@H]3[C@@H]1CC[C@@H]2O", "%", -13),
    ("O=C1OCCN1/N=C/c1ccc([N+](=O)[O-])o1", "%", -2),
    ("O=CC(O)CN1CCCC1 (stereo not given)", "%", -4),
    ("CSC1NNC2(C(=O)N1)c1ccccc1-c1ccccc12 (stereo not given)", "%", 9),
]

Quick one: give me growth inhibition for each item below, same order please.
1. CCOC(=O)C(C#N)NC(C)=O (stereo not given)
2. CCOc1ccccc1/C=C1\C=Nc2ccccc21

1. -1
2. 25

Quick one: give me growth inhibition for each item below, same order please.
1. O=C(CNc1cccc(Cl)c1)Nn1c(-c2ccccc2)nc2ccccc2c1=O
2. CN(C)c1ccc(C(O)(Cc2cccnc2)c2ccc(N(C)C)cc2)cc1
3. Nc1ccc(S(=O)(=O)C23CC4CC(CC(C4)C2)C3)cc1
4. Cc1cc(Oc2nc(Cl)nc(C(Cl)(Cl)Cl)c2Cl)cc(C)c1N(C)C (tested in a mixture with another compound)
5. COC(=O)C1(Cc2ccc3c(c2)CCC3)Cc2ccccc2C1O (stereo not given)
6. Cc1cccc(NC(=O)CCc2ccc(Cl)cc2)n1
7. Cc1cc(Cl)cc2c1OCN(C)C2

16
-1
1
-12
1
-6
-6

Name the recorded growth inhibition of the compound listed here: [Cu+2].[NH-]c1ccccc1O.[NH-]c1ccccc1[OH2+]
11

====

Provide the recorded growth inhibition for the entries that follow.
# test_details: NCI Yeast Anticancer Drug Screen. Data for the cln2 rad14 strain (AID 165);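 also: 0% = growth equal to vehicle treated cultures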
# condition_parameters: S. cerevisiae cln2 rad14 strain, at 50.0 µM, active compounds read high
The panel holds about 79,000 compounds, 15% with a hit somewhere; the sample as a whole holds those more often.
Answers are plain numbers, in %.

Example cases with answers are listed next.
# compound, growth inhibition / %
data = [
    ("CC1=CC(O)(c2nc3ccccc3s2)CC(C)(C)C1 (centres undefined)", 47.7),
    ("CC1(C)OC2OC(/C=C/[N+](=O)[O-])C3OC(C)(C)OC3C2O1 (centres undefined)", 5.45),
    ("CCOc1ccc2c(c1)nc1cc(Cl)ccc1[n+]2C", 75.2),
    ("CCOC(CN(C)C(=O)Nc1ccc(Cl)c(Cl)c1)OCC", 67.8),
    ("CC(C)C(=O)c1ccc([N+](=O)[O-])o1", 97.3),
    ("Cc1ccc(C2COc3cc(O)c(O)cc3C2)cc1 (centres undefined)", 96.2),
    ("CCc1ccc(/C=C/c2ccc([N+](=O)[O-])cc2)nc1", 7.1),
    ("CCOC(=O)C1SC(=Nc2ccc(Cl)cc2C)N=C1C (centres undefined)", 90.2),
]

Now look at this entry.
Name the recorded growth inhibition of the compound listed here: O=c1c2cc3ccccc3cc2c(=O)n2n1CC=CC2
26.8

====

Provide the recorded growth inhibition for the entries that follow.
# test_details: NCI Yeast Anticancer Drug Screen. Data for the bub3 strain (AID 167)
# condition_parameters: S. cerevisiae bub3 mutant strain, at 5.0 µM (retest, dose inferred, filed as 0.5), active compounds read high
This is part of a sample that, as a whole, favours compounds with a hit. Of some 79,000 tested, about 15% had one in any assay.
Give bare numbers, in %.

# compound, experimental_value
data = [
    ("CCC(C)(C)c1ccc(OC(=O)C(C)OC(C)=O)cc1 (centres undefined)", -5),
    ("CCCCCCCCCCCC1=NCC(C)N1 (centres undefined)", 0),
    ("NC(Cc1ccnnc1)C(=O)O (centres undefined)", -13),
]

Now look at this entry.
Name the recorded growth inhibition of the compound listed here: CC1=C(C)CC(C#N)(C#N)C(C#N)(C#N)C1
30
